These measurements were taken from ChEMBL document CHEMBL2346555.

- measurement_description: Drug degradation in THF at 254 nM after 24 hrs by LC-MS analysis in presence of NaHCO3 and BnNH2
- Assay type: physicochemical
- experimental_parameters: THF with NaHCO3 and BnNH2; read-out: Drug degradation
endpoint_name: degraded at 24 h, 0.254 µM

Which degraded at 24 h, 0.254 µM reading was recorded for the compound `CC(C)(C)OC(=O)N1C[C@@H](CCl)c2c1cc1c3c(cccc23)C(=O)NO1` ? 3%

---

- measurement_description: Drug degradation in MeOH at 254 nM after 48 hrs by LC-MS analysis in presence of NaHCO3 and BnNH2
- Format: physicochemical
- experimental_parameters: MeOH with NaHCO3 and BnNH2; read-out: Drug degradation
endpoint_name: degraded at 48 h, 0.254 µM (%)
Answers are plain numbers, in %.

Any idea what degraded at 48 h, 0.254 µM was measured for `CC(C)(C)OC(=O)N1C[C@@H](CCl)c2c1cc1c3c(cccc23)C(=O)NO1` ? 15

---

- measurement_description: Drug degradation in MeOH at 254 nM after 2 hrs by LC-MS analysis in presence of NaHCO3 and BnSH
- Type: physicochemical
- experimental_parameters: MeOH with NaHCO3 and BnSH; read-out: Drug degradation
endpoint_name: degraded at 2 h, 0.254 µM

Which degraded at 2 h, 0.254 µM is reported for this compound? `CC(C)(C)OC(=O)N1C[C@@H](CCl)c2c1cc1c3c(cccc23)C(=O)NO1` 33%

---

- measurement_description: Drug degradation in MeOH at 254 nM after 72 hrs by LC-MS analysis in presence of NaHCO3 and BnSH
- Assay type: physicochemical
- experimental_parameters: MeOH with NaHCO3 and BnSH; read-out: Drug degradation
endpoint_name: degraded at 72 h, 0.254 µM (%)
Numbers only, in %.

Name the reported degraded at 72 h, 0.254 µM value associated with the compound `CC(C)(C)OC(=O)N1C[C@@H](CCl)c2c1cc1c3c(cccc23)C(=O)NO1` 83

---

- measurement_description: Fraction unbound in mouse plasma
- Format: ADME, cell-free
endpoint_name: fraction unbound

Dear colleague, I am looking for the recorded fraction unbound of the following compound: `O=C(Nc1ccc2[nH]c(C(=O)N3C[C@@H](CCl)c4c3cc3c5c(cccc45)C(=O)NO3)cc2c1)c1cc2ccccc2[nH]1` < 0.05

---

- measurement_description: Half life of the compound in phosphate buffer at pH 7
endpoint_name: half-life

I'd like to know its half-life. The compound in question is `CN1Oc2cc3c(c4cccc(c24)C1=O)[C@H](CCl)CN3C(=O)c1cc2cc(NC(=O)c3cc4ccccc4[nH]3)ccc2[nH]1` > 28 days

---

- measurement_description: Drug degradation in MeOH at 254 nM after 72 hrs by LC-MS analysis in presence of NaHCO3 and BnNH2
- Format: physicochemical
- experimental_parameters: MeOH with NaHCO3 and BnNH2; read-out: Drug degradation
endpoint_name: degraded at 72 h, 0.254 µM (%)
Numbers only, in %.

Consider the molecule `CC(C)(C)OC(=O)N1C[C@@H](CCl)c2c1cc1c3c(cccc23)C(=O)NO1` and give its measured degraded at 72 h, 0.254 µM. 16

---

- measurement_description: Drug degradation in THF at 254 nM after 48 hrs by LC-MS analysis in presence of NaHCO3 and BnNH2
- Format: physicochemical
- experimental_parameters: THF with NaHCO3 and BnNH2; read-out: Drug degradation
endpoint_name: degraded at 48 h, 0.254 µM (%)
One number for each entry, in %.

Which degraded at 48 h, 0.254 µM value is on record for `CC(C)(C)OC(=O)N1C[C@@H](CCl)c2c1cc1c3c(cccc23)C(=O)NO1` ? 4
